study system: T1, monkey C5-mmh (monkey, UniProt P01031 19-1676 (human entry), limits assumed)
T1 construct: Expressed with a C-terminal myc-myc-hexahistidine tag
T1 chain: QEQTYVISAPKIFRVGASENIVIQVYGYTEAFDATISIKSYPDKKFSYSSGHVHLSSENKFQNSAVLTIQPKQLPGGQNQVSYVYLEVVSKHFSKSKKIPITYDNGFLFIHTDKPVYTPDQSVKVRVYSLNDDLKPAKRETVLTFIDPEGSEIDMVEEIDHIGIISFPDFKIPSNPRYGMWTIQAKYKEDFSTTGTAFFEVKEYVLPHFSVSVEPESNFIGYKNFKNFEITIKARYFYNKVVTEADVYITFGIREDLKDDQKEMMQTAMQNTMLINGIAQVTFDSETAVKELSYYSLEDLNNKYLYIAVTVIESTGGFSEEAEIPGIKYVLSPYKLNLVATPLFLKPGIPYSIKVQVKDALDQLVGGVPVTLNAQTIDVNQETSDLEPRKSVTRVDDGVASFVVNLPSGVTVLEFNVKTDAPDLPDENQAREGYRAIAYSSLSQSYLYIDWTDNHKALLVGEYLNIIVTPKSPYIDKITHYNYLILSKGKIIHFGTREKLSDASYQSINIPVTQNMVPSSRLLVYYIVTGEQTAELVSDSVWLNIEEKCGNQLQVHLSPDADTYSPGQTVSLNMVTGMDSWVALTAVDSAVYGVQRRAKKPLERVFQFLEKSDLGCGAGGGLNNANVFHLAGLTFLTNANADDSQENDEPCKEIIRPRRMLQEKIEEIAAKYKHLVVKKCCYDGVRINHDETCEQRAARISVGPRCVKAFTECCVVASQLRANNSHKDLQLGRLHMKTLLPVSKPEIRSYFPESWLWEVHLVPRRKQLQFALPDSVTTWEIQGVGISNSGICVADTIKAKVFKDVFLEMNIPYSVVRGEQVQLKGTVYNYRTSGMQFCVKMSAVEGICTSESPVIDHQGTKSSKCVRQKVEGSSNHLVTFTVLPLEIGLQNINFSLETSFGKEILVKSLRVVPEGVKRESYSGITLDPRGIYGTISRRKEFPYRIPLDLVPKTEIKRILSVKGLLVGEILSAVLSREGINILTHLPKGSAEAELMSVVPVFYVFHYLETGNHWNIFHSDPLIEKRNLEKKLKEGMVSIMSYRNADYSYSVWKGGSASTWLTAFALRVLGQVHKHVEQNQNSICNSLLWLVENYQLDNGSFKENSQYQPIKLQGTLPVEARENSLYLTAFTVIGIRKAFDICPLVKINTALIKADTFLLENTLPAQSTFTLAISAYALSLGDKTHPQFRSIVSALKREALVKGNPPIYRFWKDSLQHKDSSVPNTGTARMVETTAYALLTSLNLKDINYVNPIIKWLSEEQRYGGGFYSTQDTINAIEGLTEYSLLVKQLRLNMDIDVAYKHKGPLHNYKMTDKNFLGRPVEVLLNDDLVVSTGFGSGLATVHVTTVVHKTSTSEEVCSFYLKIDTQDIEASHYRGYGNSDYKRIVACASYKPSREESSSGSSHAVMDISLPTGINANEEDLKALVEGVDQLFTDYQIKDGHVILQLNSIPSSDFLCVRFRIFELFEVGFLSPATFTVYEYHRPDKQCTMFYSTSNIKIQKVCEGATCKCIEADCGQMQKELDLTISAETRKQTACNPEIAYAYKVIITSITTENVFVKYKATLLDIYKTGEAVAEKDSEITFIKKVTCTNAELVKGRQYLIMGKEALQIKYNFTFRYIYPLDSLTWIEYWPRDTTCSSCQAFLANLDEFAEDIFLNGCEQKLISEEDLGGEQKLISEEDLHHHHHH
test name: SPR, mAb captured by anti-hFc, 25C
readout label: kon
Number first, unit second.

H4H12171P (antibody, human IgG4, V domains shown) VH: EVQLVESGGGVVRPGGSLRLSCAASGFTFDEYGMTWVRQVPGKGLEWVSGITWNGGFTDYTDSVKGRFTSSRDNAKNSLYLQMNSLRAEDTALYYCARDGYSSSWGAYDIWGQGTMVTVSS VL: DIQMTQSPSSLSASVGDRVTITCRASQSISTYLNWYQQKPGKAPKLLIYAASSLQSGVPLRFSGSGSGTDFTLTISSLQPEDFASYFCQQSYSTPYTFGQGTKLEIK	46000 M⁻¹ s⁻¹
H4H12164P (antibody, human IgG4, V domains shown) VH: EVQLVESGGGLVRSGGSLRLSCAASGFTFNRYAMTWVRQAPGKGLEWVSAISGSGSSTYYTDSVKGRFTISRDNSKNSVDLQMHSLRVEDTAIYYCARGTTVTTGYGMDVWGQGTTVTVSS VL: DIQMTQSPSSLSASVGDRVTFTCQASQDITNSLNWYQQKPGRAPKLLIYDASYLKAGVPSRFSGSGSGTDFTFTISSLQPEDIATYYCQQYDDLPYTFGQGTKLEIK	127000 M⁻¹ s⁻¹

Record summary for H4H12161P (antibody, human IgG4, V domains shown) VH: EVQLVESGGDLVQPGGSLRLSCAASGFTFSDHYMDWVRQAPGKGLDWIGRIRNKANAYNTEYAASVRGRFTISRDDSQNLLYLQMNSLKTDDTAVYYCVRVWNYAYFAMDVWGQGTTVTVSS VL: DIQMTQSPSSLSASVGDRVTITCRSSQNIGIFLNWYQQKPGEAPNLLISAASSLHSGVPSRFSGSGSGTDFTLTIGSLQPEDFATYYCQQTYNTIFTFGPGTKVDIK : reported kon = 63300 M⁻¹ s⁻¹

Lookup result for H4H11683N (antibody, human IgG4, V domains shown, also called H2M11683N) VH: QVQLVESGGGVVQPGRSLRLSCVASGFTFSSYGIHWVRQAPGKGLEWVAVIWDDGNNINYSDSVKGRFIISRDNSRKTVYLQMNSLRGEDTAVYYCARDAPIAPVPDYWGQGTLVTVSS VL: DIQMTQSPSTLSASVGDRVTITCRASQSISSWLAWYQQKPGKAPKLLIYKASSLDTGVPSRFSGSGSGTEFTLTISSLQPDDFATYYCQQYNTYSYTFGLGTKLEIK ; measured kon: 386000 M⁻¹ s⁻¹

Query H4H12159P (antibody, human IgG4, V domains shown) VH: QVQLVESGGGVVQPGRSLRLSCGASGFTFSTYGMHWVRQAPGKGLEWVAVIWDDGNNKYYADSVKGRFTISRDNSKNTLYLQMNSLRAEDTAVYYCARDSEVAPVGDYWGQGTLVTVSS VL: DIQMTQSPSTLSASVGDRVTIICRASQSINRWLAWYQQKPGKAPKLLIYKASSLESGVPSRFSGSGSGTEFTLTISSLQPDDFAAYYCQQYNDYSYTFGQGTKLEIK yields kon of 354000 M⁻¹ s⁻¹
